B1: HDV Ribozyme (parent)
chain: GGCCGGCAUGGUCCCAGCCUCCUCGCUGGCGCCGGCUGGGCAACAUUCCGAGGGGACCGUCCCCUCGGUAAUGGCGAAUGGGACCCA

Variants of: B1
protocol.details: self-cleavage, relative activity (ratio to wild type); higher = more cleavage; co-transcriptional
Field: self-cleavage. Provide a value for each of the variants that follow.
Answers are plain numbers.

Working through the 6 variants below one at a time, give self-cleavage for each.
1. U27G C48A
2. C7A A45G
3. G5A U37C
4. C64A C75A
5. G40U U47G
6. C19G U46A

[0.72, 0.705, 0.764, 0.237, 0.46, 0]
